- target: Alpha-bungarotoxin (Bungarus multicinctus)
- method_notes: compounds binding labelled alpha-BTX control protein – biochemical, small-molecule microarray, Alexa647 label, 635/667 nm fluorescence, artefact control for SMM control protein annotation, profiling panel (AID 1117)
- test_context: alpha-BTX-A647 binding fluorescence, higher = more signal
Entries annotated with measured composite z-score
assay_metric: composite z-score

>  <compound>
Cc1ccc(C(C)CC(O)C2C=CC3C(=O)N(c4ccccc4)C(=O)C3N2Nc2ccccc2)o1 (configuration not stated)

>  <result>
1.3

$$$$
>  <compound>
COCCOC(=O)N1C(=O)[C@@]2(c3cc(C#CC4=CCCCC4)ccc31)[C@H](C(=O)Nc1nc3ccccc3s1)[C@H]1C(=O)O[C@H](c3ccccc3)[C@H](c3ccccc3)N1[C@@H]2c1ccc(O)cc1

>  <result>
0.42

$$$$
>  <compound>
CN(C)CCCCCCNC(=O)[C@@H]1C[C@@H]2C(=O)N3CCC[C@H]3C(=O)N2[C@@H]1c1cccc(OCCO)c1

>  <result>
1.79

$$$$
>  <compound>
CCCCCCCCCC(O)C1C=CC2C(=O)N(c3ccccc3)C(=O)C2N1Nc1cc(OC)c(OC)c(OC)c1 (configuration not stated)

>  <result>
0.774

$$$$
>  <compound>
CCC1=C2CN(Cc3ccccc3)[C@@H](C(=O)Cc3ccccc3)C2C=CCC1 (some centres not stated)

>  <result>
0.0601

$$$$
>  <compound>
CCCCCN1CC=CC23O[C@@H]4/C=C\CCC(C)OC(=O)C4[C@H]2C(=O)N(C(CO)C(C)C)[C@@H]3C1=O (some centres not stated)

>  <result>
0.0325

$$$$
>  <compound>
[N-]=[N+]=Nc1ccccc1C[C@@]1(C(=O)NCCN2CCOCC2)N=C(c2ccc(OCCCO)cc2)O[C@@H]1c1ccccc1N=[N+]=[N-]

>  <result>
1.74

$$$$

----------
Entries annotated with measured composite z-score
- method_notes: probe aDKK1 binding to arrayed compounds – biochemical, biotinylated probe, 635/667 nm fluorescence, primary screen (AID 1099);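 note: score merges 667nm spot fluorescence with signal to noise across triplicate slides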
- test_context: small-molecule microarray, higher = more signal
assay_metric: composite z-score

>  <molecule>
C=CC[C@]1(C(=O)N2CCCCC2)N=C(c2ccc(OCCCO)cc2)O[C@H]1c1ccccc1CN=[N+]=[N-]

>  <result>
0.258

$$$$
>  <molecule>
[N-]=[N+]=Nc1ccccc1[C@@H]1OC(c2ccc(OCCCO)cc2)=N[C@]1(Cc1ccccc1)C(=O)N1CCCCC1

>  <result>
0.374

$$$$
>  <molecule>
CCN(CC)c1ccc(N2CC=CC34O[C@@H]5/C=C\CCCOC(=O)C5[C@H]3C(=O)N(C(C)CO)[C@@H]4C2=O)cc1 (stereo partly specified)

>  <result>
-0.213

$$$$
>  <molecule>
C=CCNC(=O)[C@@H]1[C@H]2C(=O)O[C@H](c3ccccc3)[C@H](c3ccccc3)N2[C@H](c2ccccc2OCCO)[C@@]12C(=O)N(C(=O)OCCOC)c1ccc(C#CC3(O)CCCCCC3)cc12

>  <result>
0.0347

$$$$
>  <molecule>
O=C1C2C=CC(C(O)c3ccco3)N(Nc3ccccc3F)C2C(=O)N1c1ccccc1 (stereo unspecified)

>  <result>
0.497

$$$$
>  <molecule>
Cc1ccc(F)cc1S(=O)(=O)N[C@@H]1CCN(Cc2ccc(Br)cc2)C1

>  <result>
-0.16

$$$$
>  <molecule>
O=C(O)[C@@H]1[C@@H]2C(=O)N(c3ccccc3)C(=O)[C@@H]2C[C@@H]1Sc1ccccc1

>  <result>
0.638

$$$$
>  <molecule>
CC[C@@H]1C=C(C(=O)O)[C@H](c2ccccc2)N1S(=O)(=O)c1ccc(C)cc1

>  <result>
0.748

$$$$
>  <molecule>
[N-]=[N+]=Nc1ccccc1C[C@]1(C(=O)O)COC(c2ccc(OCCCO)cc2)=N1

>  <result>
0.336

$$$$
>  <molecule>
C=C(COC)/C(=C/C[C@H](OC(=O)c1ccncc1)c1ccc(CO)o1)c1cnc2ccccc2c1

>  <result>
-0.155

$$$$
>  <molecule>
COCCOC(=O)N1C(=O)[C@@]2(c3ccccc31)[C@H](c1ccc(O)cc1)N1[C@H](c3ccccc3)[C@H](c3ccccc3)OC(=O)[C@H]1[C@@H]2C(=O)N1CCN(c2ncccn2)CC1

>  <result>
0.0484

$$$$
>  <molecule>
O=C1C2C=CC(C(O)C3CC=CCC3)N(Nc3ccccc3)C2C(=O)N1c1ccccc1 (stereo unspecified)

>  <result>
1.13

$$$$
>  <molecule>
CCOC(=O)C[C@H]1[C@H](OC(=O)c2cc3ccccc3oc2=O)[C@@H](NC(=O)CC(C)C)c2cc(OCCCO)ccc2N1C(=O)c1ccc2ccccc2n1

>  <result>
-0.12

$$$$
>  <molecule>
COc1ccccc1CN1C(=O)c2ccccc2[C@](Cc2ccccc2I)(C(=O)O)[C@@H]1c1ccc(CO)cc1

>  <result>
0.552

$$$$
>  <molecule>
CC(C)[Si](C#C[Si](C(C)C)(C(C)C)C(C)C)(O[C@H](c1ccccc1)c1cn(Cc2ccccc2)nn1)C(C)C

>  <result>
-0.138

$$$$
>  <molecule>
C[N+](C)(C)CCCC[C@@H]1NC(=O)[C@@H]2C[C@H](C(=O)NCCCCCCN)[C@H](c3cccc(OCCO)c3)N2C1=O

>  <result>
1.85

$$$$
>  <molecule>
CC(c1ccccc1)C(O)C1C=CC2C(=O)N(C)C(=O)C2N1Nc1ccccc1 (stereo unspecified)

>  <result>
1.04

$$$$
>  <molecule>
CN(C)C(=O)[C@]1(CCC(=O)OC(C)(C)C)N=C(c2ccc(OCCCO)cc2)O[C@@H]1c1ccccc1CN=[N+]=[N-]

>  <result>
-0.594

$$$$
>  <molecule>
[N-]=[N+]=Nc1ccccc1[C@@H]1OC(c2ccc(OCCCO)cc2)=N[C@]1(Cc1ccccc1)C(=O)O

>  <result>
0.973

$$$$
>  <molecule>
CN(C)c1ccc(C(O)C2C=CC3C(=O)NC(=O)C3N2Nc2ccccn2)cc1 (stereo unspecified)

>  <result>
0.206

$$$$
>  <molecule>
CCCCNC(=O)c1ccc(C#CC(C)(C)C)c(OC(C)=O)c1

>  <result>
-0.369

$$$$
>  <molecule>
COC(=O)c1c(CC[C@@H](CO)NC(=O)N2CCC[C@H]2Cn2cc(C3(O)CCCCC3)nn2)oc(C(C)=O)c1C(=O)OC

>  <result>
-0.152

$$$$
>  <molecule>
CC(C)C(CO)N1C(=O)[C@@H]2C3C(=O)OCCC/C=C\[C@H]3OC23C=CCN(c2ccc4ccccc4c2)C(=O)[C@@H]13 (stereo partly specified)

>  <result>
-0.167

$$$$
>  <molecule>
O=C1OCCC=C[C@H]2OC34C=CCN(c5ccc6ccccc6c5)C(=O)[C@H]3N(CCCO)C(=O)[C@@H]4C12 (stereo partly specified)

>  <result>
-0.258

$$$$
>  <molecule>
CCCNC(=O)[C@@]1(Sc2ccc(C)cc2)CC(=O)N(C2Cc3ccccc3C2)[C@@H]1c1ccc(CO)cc1I

>  <result>
0.551

$$$$
>  <molecule>
COCC(=C=CC[C@H](O)c1ccccc1OCCO)C[C@H](O)c1ccccn1

>  <result>
-0.201

$$$$
>  <molecule>
COc1ccc([Si](C)(C)[C@@H]2[C@@H](CCO)O[C@]3(C(=O)N(Cc4cccc(NC(=O)[C@H](C)O)c4)c4ccccc43)[C@H]2C)cc1

>  <result>
1.09

$$$$
>  <molecule>
Cc1ccc(S[C@]2(C(=O)NCC(F)(F)F)CC(=O)N(Cc3cc(C(F)(F)F)cc(C(F)(F)F)c3)[C@@H]2c2ccc(CO)cc2)cc1

>  <result>
-0.193

$$$$
>  <molecule>
Cc1ccc(C(C)CC(O)C2C=CC3C(=O)N(c4ccccc4)C(=O)C3N2Nc2ccccc2)o1 (stereo unspecified)

>  <result>
1.01

$$$$
>  <molecule>
[N-]=[N+]=NCc1ccccc1[C@H]1OC(c2ccc(OCCCO)cc2)=N[C@@]1(Cc1ccccc1N=[N+]=[N-])C(=O)NCC(O)CO (stereo partly specified)

>  <result>
0.33

$$$$
>  <molecule>
COC(=O)[C@@H]1N=C(c2ccc(OCCCO)cc2)O[C@@H]1C

>  <result>
0.017

$$$$
